meta.source: patent US20210255193A1

# targetEntity: PFKP 6-phosphofructokinase type C (Homo sapiens, UniProt Q01813)
# Construct: isoTOP-ABPP experiments performed in cell lysates (in vitro); endogenous in cells
# Sequence (Q01813 whole entry): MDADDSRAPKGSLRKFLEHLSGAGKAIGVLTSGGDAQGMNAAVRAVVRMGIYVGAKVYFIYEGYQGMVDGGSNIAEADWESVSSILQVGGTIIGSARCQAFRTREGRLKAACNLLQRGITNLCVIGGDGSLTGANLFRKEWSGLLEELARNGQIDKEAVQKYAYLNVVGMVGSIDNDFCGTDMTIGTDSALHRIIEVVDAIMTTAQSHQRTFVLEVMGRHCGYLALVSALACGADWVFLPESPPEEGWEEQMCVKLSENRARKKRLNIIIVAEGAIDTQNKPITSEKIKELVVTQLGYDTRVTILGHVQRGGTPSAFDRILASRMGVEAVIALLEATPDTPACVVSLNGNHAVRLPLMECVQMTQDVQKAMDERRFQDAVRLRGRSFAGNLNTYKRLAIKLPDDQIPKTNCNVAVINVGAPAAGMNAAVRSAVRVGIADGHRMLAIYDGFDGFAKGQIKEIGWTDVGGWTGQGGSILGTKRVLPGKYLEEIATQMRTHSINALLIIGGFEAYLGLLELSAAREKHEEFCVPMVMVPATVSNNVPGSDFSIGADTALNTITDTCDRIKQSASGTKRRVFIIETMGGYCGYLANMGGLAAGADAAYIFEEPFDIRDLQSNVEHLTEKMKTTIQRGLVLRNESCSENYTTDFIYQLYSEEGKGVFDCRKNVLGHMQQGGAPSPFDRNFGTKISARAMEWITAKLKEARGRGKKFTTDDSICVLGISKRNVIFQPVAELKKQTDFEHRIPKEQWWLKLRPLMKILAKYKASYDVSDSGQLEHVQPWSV
# protocolSummary: competitive isoTOP-ABPP
# Type: binding
# statedConditions: Q01813_K688; 50 uM, 231 sol, in vitro
Label key: Satisfied means R value (DMSO/fragment) for probe 1 labeling under 2; Not satisfied means R value (DMSO/fragment) for probe 1 labeling of 2 or more.

molecule	classification
O=C(CCc1cn(-c2ccccc2)nc1-c1ccccc1)Oc1c(F)c(F)c(F)c(F)c1F	Satisfied
COc1cc(CCC(=O)Oc2c(F)c(F)c(F)c(F)c2F)cc(OC)c1OC	Not satisfied
O=C(Oc1c(F)c(F)c(F)c(F)c1F)c1cc(C(F)(F)F)cc(C(F)(F)F)c1	Satisfied
O=C(Oc1c(F)c(F)c(F)c(F)c1F)C(c1ccccc1)c1ccccc1 [fragment 20, Pentafluorophenyl 2,2-diphenylacetate]	Not satisfied
